In this section we review reported normalized growth values for a set of compounds.
# PROTOCOL_SUMMARY: chemical genetic growth profiling, strain panel (AID 1159580);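 further: tested at 20 µM; growth read once vehicle control cultures reached saturation at 30 °C; 1 = growth at the plate median or of vehicle wells; lower values mean less growth of the strain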
# APPLIED_CONDITIONS: S. cerevisiae deletion strains, growth OD, locus YJL187C, strain SWE1, stronger effect = lower value
Hit rate of the full screen: of about 5,500 compounds, about 2,000 (36%) were called active. Inconclusive results (about 18%) are left out. The list shows a part of the results.

{"columns": ["COMPOUND", "normalized growth"],
 "data": [
  ["NS(=O)(=O)c1cc2c(cc1Cl)NCNS2(=O)=O", 0.998],
  ["NC(Cc1ccc(Cl)cc1)C(=O)O (stereo not given)", 0.993],
  ["CC(NC(C)(C)C)C(=O)c1cccc(Cl)c1 (stereo not given)", 0.996],
  ["O=C1c2ccccc2C(=O)c2ccccc21", 0.989],
  ["O=C1C=CC(=O)c2c(O)cccc21", 0.987],
  ["O=C(O)c1cc(=O)c2ccccc2[nH]1", 0.987],
  ["CNC(C)[C@@H]1CC[C@@H](N)[C@@H](OC2[C@@H](N)C[C@@H](N)[C@H](OC3OC[C@](C)(O)[C@H](NC)[C@H]3O)[C@H]2O)O1 (stereo not given in full)", 0.992],
  ["CC1CC(OC(=O)c2ccccc2O)CC(C)(C)C1 (stereo not given)", 0.974],
  ["CC(=O)OC[C@@]1(O)C[C@@]23CCC4c5ccoc5CC[C@]4(C)C2CC[C@@H]1C3 (stereo not given in full)", 1.01],
  ["CNC(=O)Oc1ccccc1OC(C)C", 0.995],
  ["CC(=O)c1c(O)cc(O)cc1O", 0.99],
  ["CNC(C)(C)Cc1ccccc1", 1.02],
  ["Cc1cc(N=C(N)N=C(N)N)no1", 1],
  ["COc1ccc(CCNC(=O)c2ccccc2Cl)cc1OC", 0.984],
  ["CN1CCC[C@H]1c1cccnc1", 1.02],
  ["CC(C)CCCC(C)N (stereo not given)", 1.02],
  ["CC12CCC(OC(=O)c3ccccc3)CC1CCc1ccccc12 (stereo not given)", 1],
  ["NNCc1ccccc1", 0.987],
  ["COc1cc(O)c2c(c1)C(=O)c1cc(C)cc(O)c1C2=O", 0.985],
  ["CC(C)=CCC/C(C)=C/CO", 0.993]
]}

====

# PROTOCOL_SUMMARY: chemical genetic growth profiling, strain panel (AID 1159580);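 further: tested at 20 µM; growth read once vehicle control cultures reached saturation at 30 °C; 1 = growth at the plate median or of vehicle wells; lower values mean less growth of the strain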
# APPLIED_CONDITIONS: S. cerevisiae deletion strains, growth OD, locus YMR223W, strain ubp8, stronger effect = lower value
The whole screen tested about 5,500 compounds, of which about 2,000 (36%) were called active. Not shown: some 18% with an inconclusive outcome. The list shows a part of the results.
In this section we review reported normalized growth values for a set of compounds.

{"columns": ["COMPOUND", "normalized growth"],
 "data": [
  ["O=C(O)c1cc(=O)c2ccccc2[nH]1", 0.985],
  ["CCCN(CCC)c1c([N+](=O)[O-])cc(C(F)(F)F)cc1[N+](=O)[O-]", 1.01],
  ["CC(C)N1C(=O)c2ccccc2NS1(=O)=O", 1],
  ["CC(C)N=C(N)N=C(N)Nc1ccc(Cl)cc1", 1.01],
  ["CNC(=O)Oc1cccc2c1OC(C)(C)C2", 0.992],
  ["CC(=O)CCCCn1c(=O)c2c(ncn2C)n(C)c1=O", 0.975],
  ["CC(C)C1CCC(C(=O)N[C@@H](Cc2ccccc2)C(=O)O)CC1 (some centres undefined)", 1.02],
  ["CNC(C)(C)Cc1ccccc1", 1.02],
  ["O=C(N[C@@H](CO)[C@H](O)c1ccc([N+](=O)[O-])cc1)C(Cl)Cl", 0.974],
  ["CC(C)Cn1c(=O)n(C)c(=O)c2[nH]cnc21", 0.973],
  ["CC(=O)Nc1c(I)cc(I)c(C(=O)O)c1I", 0.972],
  ["CC1(C)CC23C(=O)CCC(O)C2(C)CCC13 (centres undefined)", 1.02],
  ["O=C(O)c1cccnc1C(=O)O", 1.01],
  ["CN1C(=O)CC[C@H]1c1cccnc1", 1.01],
  ["Cn1c(=O)c2c(ncn2CCCl)n(C)c1=O", 1.04],
  ["CC(NC(C)(C)C)C(=O)c1cccc(Cl)c1 (centres undefined)", 1.01],
  ["COc1cc(O)ccc1C(C)=O", 0.979],
  ["O=c1c(O)c(-c2ccccc2)oc2ccc3occc3c12", 0.762],
  ["Oc1cccc2cccnc12", 0.0625],
  ["COC(=O)c1cc(OC)c(=O)c2c(OC)c(OC)ccc2c1", 1],
  ["Cn1c(=O)[nH]c2nc[nH]c2c1=O", 0.991],
  ["O=C1C=CC(=O)c2c(O)cccc21", 0.966],
  ["COc1cc2cccc(OC)c(=O)c2c(OC)c1OC", 1.01],
  ["O=C(/C=C/c1ccc(O)cc1)c1ccc(O)cc1O", 0.967],
  ["O=C(CCc1ccc(O)cc1)c1c(O)cc(O)cc1O", 1.04],
  ["COc1ccc(/C=C/c2cc(O)cc(O[C@@H]3O[C@H](CO)[C@@H](O)[C@H](O)[C@H]3O)c2)cc1", 0.985],
  ["O=C1c2ccccc2C(=O)c2ccccc21", 0.963],
  ["COc1ccc([C@@H](C)C(=O)c2ccc(O)cc2O)cc1", 0.944],
  ["ClC1C(Cl)C(Cl)C(Cl)C(Cl)C1Cl (centres undefined)", 0.956],
  ["C=C[C@H]1CN2CC[C@H]1C[C@H]2[C@H](O)c1ccnc2ccccc12", 0.978],
  ["Cn1c(=O)[nH]c2ncn(C)c2c1=O", 1.01],
  ["C[N+]1(C)CCCC(OC(=O)C(O)(c2ccccc2)c2ccccc2)C1 (centres undefined)", 0.951],
  ["COC(=O)C[C@H]1C(C)(C)[C@@H](OC(C)=O)[C@@H]2CC3=C4CC(=O)O[C@@H](c5ccoc5)[C@]4(C)CCC3[C@@]1(C)C2=O (some centres undefined)", 0.998],
  ["OC[C@H]1O[C@@H](Oc2ccc(O)cc2)[C@H](O)[C@@H](O)[C@@H]1O", 1.02],
  ["CON", 0.993],
  ["Cn1cnc2c1c(=O)[nH]c(=O)n2C", 1],
  ["O=C1C(=O)c2ccccc2C(O)=C1C1CCC(c2ccc(Cl)cc2)CC1 (centres undefined)", 0.981],
  ["O=C(O)CCC(=O)OC[C@@H](NC(=O)C(Cl)Cl)[C@H](O)c1ccc([N+](=O)[O-])cc1", 0.997],
  ["O=C(/C=C/c1ccccc1)c1c(O)cc(O)cc1O", 0.995]
]}

====

# PROTOCOL_SUMMARY: chemical genetic growth profiling, strain panel (AID 1159580);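 further: tested at 20 µM; growth read once vehicle control cultures reached saturation at 30 °C; 1 = growth at the plate median or of vehicle wells; lower values mean less growth of the strain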
# APPLIED_CONDITIONS: S. cerevisiae deletion strains, growth OD, locus YOR061W, strain CKA2, stronger effect = lower value
The whole screen tested about 5,500 compounds, of which about 2,000 (36%) were called active. About 18% were inconclusive and are not listed. This is one part of the list.

{"columns": ["COMPOUND", "normalized growth"],
 "data": [
  ["COc1cc(Cc2cnc(N)nc2N)cc(OC)c1OC", 1],
  ["COc1cc(C2CC(=S)Nc3ccccc3S2)cc(OC)c1OC (stereo not given)", 0.944],
  ["COc1ccc(Oc2ccc([N+](=O)[O-])cc2C(=O)O/N=C(/N)c2ccc(C(F)(F)F)cc2)cc1", 1.01],
  ["CC(=O)NS(=O)(=O)c1ccc(N)cc1", 0.989],
  ["CCCN(CCC)c1c([N+](=O)[O-])cc(C(F)(F)F)cc1[N+](=O)[O-]", 1]
]}

====

# PROTOCOL_SUMMARY: chemical genetic growth profiling, strain panel (AID 1159580);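 further: tested at 20 µM; growth read once vehicle control cultures reached saturation at 30 °C; 1 = growth at the plate median or of vehicle wells; lower values mean less growth of the strain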
# APPLIED_CONDITIONS: S. cerevisiae deletion strains, growth OD, locus YNL233W, strain BNI4, stronger effect = lower value
Among all 5,500 compounds or so, about 2,000 (36%) were called active. Not shown: some 18% with an inconclusive outcome. This is one part of the list.

{"columns": ["MOLECULE", "normalized growth"],
 "data": [
  ["O=C(N[C@@H](CO)[C@H](O)c1ccc([N+](=O)[O-])cc1)C(Cl)Cl", 1.02],
  ["O=c1c(O)cccc2cc(O)c(O)c(O)c12", 0.741],
  ["CC(=O)CCCCn1c(=O)c2c(ncn2C)n(C)c1=O", 1.02],
  ["O[C@H]1[C@H](O)[C@@H](O)C2OC[C@H]1O2", 0.978],
  ["CNC(C)(C)Cc1ccccc1", 0.995],
  ["CC(C)N=C(N)N=C(N)Nc1ccc(Cl)cc1", 1.01],
  ["C[C@H]1C(=O)CCC2[C@]3(C)CC[C@@]4(C)C5CC(C)(C)CC[C@]5(C)CC[C@]4(C)C3CC[C@@]21C (stereo partly specified)", 1.01],
  ["COc1ccc(CC(=O)c2ccc(O)cc2O)cc1", 0.935],
  ["COc1cc(Cc2cnc(N)nc2N)cc(OC)c1OC", 1.01],
  ["COc1ccc(/C=C/c2cc(O)cc(O[C@@H]3O[C@H](CO)[C@@H](O)[C@H](O)[C@H]3O)c2)cc1", 1.04],
  ["CC(=O)Nc1c(I)cc(I)c(C(=O)O)c1I", 0.998],
  ["CC(C)[C@@H]1CC[C@@H](C)C[C@H]1OC(=O)c1ccccc1", 1],
  ["C[C@]12[C@H](O)CC3C(CC[C@@H]4C[C@@H](O)CC[C@]34C)[C@@]1(O)CC[C@@H]2C1=CC(=O)OC1 (stereo partly specified)", 1],
  ["Cn1cnc2c1c(=O)[nH]c(=O)n2C", 1.01],
  ["COC(=O)c1cc(OC)c(=O)c2c(OC)c(OC)ccc2c1", 1.03],
  ["O=C1C=C(O)c2ccccc2C1=O", 0.978]
]}

Hello, the source for this data is PubChem BioAssay AID1159580, in case you need it.
